# Test system: SK-MEL-2
# assayName: NCI tumour cell line growth inhibition, 48 h
Calls of active or inactive are those of the source. No stated cut-off is given here; in the data, active = GI50 up to about 1.1 µM and inactive = higher.
Your reply should match one of these outcome classes. yes (active), no (inactive)

| compound | labelValue |
| --- | --- |
| CSc1ccn(C2CC(F)C(CO)O2)c(=O)n1 (centres undefined) | no |

What is the recorded call for this compound in the test? O=c1[nH]nc(-c2ccccc2)n1-n1cnnc1 no

Repeat with Cc1ccc2c(c1)-c1c(C#N)c(N)nc(-c3ccccc3)c1CCS2(=O)=O no

Consider next the compound CC(C)(CN1CCCCC1)C(=O)CC(SCCS(=O)(=O)O)c1ccccc1 (centres undefined) in the same way. no

====

# Tested on: NCI-H23
# assayName: NCI tumour cell line growth inhibition, 48 h
Active and inactive are the calls of the source. Rule as the data show it: active = GI50 up to about 1.1 µM and inactive = higher.
Please state which outcome applies, choosing from True for active, False for inactive

Fill in: this test's call for Cc1ccc2nc3ccccc3c(C3C4C(=O)N(c5ccc(Br)cc5Cl)C(=O)C4ON3C(C(N)=O)c3ccccc3)c2c1 (stereo not drawn) is ___ True

Likewise for Cc1ccc(/N=N/NCCCCN)cc1 ? False

Same for COC1(OC)CCCc2c1no[n+]2[O-] False

====

# Test system: PC-3
# assayName: NCI tumour cell line growth inhibition, 48 h
Active and inactive are the calls of the source. Rule as the data show it: active = GI50 up to about 1.1 µM and inactive = higher.
Task for the reader: assign each of the following compounds its reported GI50.

Study these solved cases before continuing.
| compound | GI50 |
| --- | --- |
| OCCN(CCO)c1nc(N2CCCCC2)c2nc(N(CCO)CCO)nc(N3CCCCC3)c2n1 | 33.3 µM (inactive) |
| COC(=S)OC1CC(n2cnc3c(N)ncnc32)OC1CO[Si](C)(C)C(C)(C)C (centres undefined) | 12.1 µM (inactive) |
| CC(c1ccccc1)n1cncc1C(=O)NN1CCN(C)CC1 (centres undefined) | > 10 µM (inactive) |

Field: next compound
Provide value of GI50 for this record tested with PC-3: CCc1cccc(C(C)(C)C)c1NC(=S)N/C=C(/C#N)C(N)=O > 100 µM (inactive)

====

# Tested on: KM12
# assayName: NCI tumour cell line growth inhibition, 48 h
Calls of active or inactive are those of the source. Cut-off read from the data, not from the text of the source: active = GI50 up to about 1.1 µM and inactive = higher.
Allowed answers: active, inactive

| compound | labelValue |
| --- | --- |
| C[Si](C)(C)OC1c2[nH]c3ccccc3c2CN2C(=O)CCC12 (stereo not given) | inactive |

Each compound tested received a call. Report the one for CN1CCC2(CC1)SSC1(CCN(C)CC1)S2 . inactive

Same for CN(C)/C=N\c1nncc2[nH]nnc12 inactive

Do the same for N#Cc1c(-c2ccco2)cc(-c2ccc(N)cc2)[nH]c1=O please inactive

Here is the next compound: Cc1ccc2c(c1)-c1c(C#N)c(N)nc(-c3ccccc3)c1CCS2(=O)=O inactive

Quick one: O=C(Nc1ccccn1)/C(=C\C(=O)c1ccc(Cl)cc1)Nc1ccccc1 inactive

Same thing, different compound: Cc1ccc(-c2cc(-c3ccco3)c(C#N)c(O)n2)cc1 inactive

Consider next the compound COc1cccc(/C=C2\N=C(Cl)OC2=O)c1O in the same way. inactive

Consider next the compound O=C(N/N=C/c1ccccc1O)c1ccccc1Nc1ccccc1C(=O)N/N=C/c1ccccc1O in the same way. inactive

Would you mind doing CC(=O)CCC(=O)CC(O)(C(F)(F)F)C(F)(F)F as well? inactive

Can you handle O=P1(c2ccccc2)Nc2ccccc2SSc2ccccc2N1 next? inactive

Subsequent entry: NNC(=O)CCc1ccc2ccc3ccccc3c2c1 inactive

Repeat for the following compound: Cc1cc2c(s1)C(=O)c1sccc1C2=O inactive

// query: Cc1ccc(/N=N/NCCCCN)cc1 inactive

Would you kindly repeat that for COCOCCCCCO[Si](C)(C)C(C)(C)C ? inactive

Would you kindly repeat that for CCOC(=O)Cn1c(=O)c2cc(C)cc3c(Cl)nc4c(OC)c(OC)cc1c4c32 ? inactive

Then this compound: COC1OC(C)/C(=N/O)C2OC(C)(C)OC12 (stereo not given) inactive

Further, for O=C(c1ccc(Cl)cc1)c1ccc(OCCCOc2ccc(C(=O)c3ccc(Cl)cc3)cc2)cc1 ? inactive

Also, CCn1c(CSc2nc(-c3ccccc3)c(-c3ccccc3)[nH]2)n[nH]c1=S please. inactive

How about COc1cc(C2c3cc4c(cc3[C@H](OCCN(C)C)[C@@H]3COC(=O)C23)OCO4)cc(OC)c1O (stereo not given in full) ? active

====

# Tested on: KM-20L2
# assayName: NCI tumour cell line growth inhibition, 48 h
Calls of active or inactive are those of the source. Rule as the data show it: active = GI50 up to about 1.1 µM and inactive = higher.
measuredMetric: GI50

Examples with answers:
| molecule | observedResult |
| --- | --- |
| CC12N=NN(c3ccc([N+](=O)[O-])cc3)C1(O)c1ccccc1C2=O (centres undefined) | > 100 µM (inactive) |
| O=C(O)[C@@H](NS(=O)(=O)c1ccc2ccccc2c1)c1ccccc1 | > 100 µM (inactive) |
| CC(=O)Nc1ccc(/C=C/C(=O)c2sc(C(N)=S)nc2C)cc1 | > 100 µM (inactive) |
| Cc1ccc2cc3cccc(C(=O)NCCN(C)C)c3nc2c1 | 0.733 µM (active) |
| CC1(c2ccccc2)CC12C(=O)NC(=O)NC2=O (centres undefined) | > 100 µM (inactive) |
| COC(=O)c1c(C)oc2ccc(OC(C)=O)cc12 | > 100 µM (inactive) |
| COc1cc(CCCOC2OC(COC3OCC(O)C(O)C3O)C(O)C(O)C2O)cc2cc(-c3ccc4c(c3)OCO4)oc12 (centres undefined) | > 175 µM (inactive) |
| N#Cc1c(-c2ccco2)cc(-c2ccc(N)cc2)[nH]c1=O | > 100 µM (inactive) |

API: the following record is the query input.
# lookup: GI50 of COc1ccc(N(C)Sc2ccccc2)cc1 55.6 µM (inactive)

====

# Test system: MDA-MB-435
# assayName: NCI tumour cell line growth inhibition, 48 h
The source made the active and inactive calls. Rule as the data show it: active = GI50 up to about 1.1 µM and inactive = higher.
measuredMetric: GI50

| molecule | GI50 |
| --- | --- |
| Cc1ccc2nc3ccccc3c(C3C4C(=O)N(c5ccc(Br)cc5Cl)C(=O)C4ON3C(C(N)=O)c3ccccc3)c2c1 (stereo not drawn) | 11.1 µM (inactive) |

For the 2 molecules below, give their GI50 values.
1. CCOC(=O)c1cc(-c2ccc(OC)c(OC)c2)c[nH]1
2. CN(C)/C=N\c1nncc2[nH]nnc12

1: > 10 µM (inactive); 2: > 100 µM (inactive)

====

# Test system: TK-10
# assayName: NCI tumour cell line growth inhibition, 48 h
The source made the active and inactive calls. Rule as the data show it: active = GI50 up to about 1.1 µM and inactive = higher.
measuredMetric: GI50

| compound | studySystem | GI50 |
| --- | --- | --- |
| O=c1oc2ccc(Cl)cc2cc1-c1cn2ccsc2n1 | TK-10 | > 100 µM (inactive) |
| CC1CCC2N(C1)CC1C3(O)CC45OC6(O)C(O)CCC4(C)C6CCC5C3(O)CC(O)C1(O)C2(C)O (stereo unspecified) | TK-10 | > 100 µM (inactive) |
| Sc1nnc(NNc2ccccc2)n1Nc1ccccc1 | TK-10 | > 52.6 µM (inactive) |
| C1C2CC3CC1CC(c1nn4c(C56CC7CC(CC(C7)C5)C6)nnc4s1)(C2)C3 | TK-10 | > 100 µM (inactive) |
| COC1OC(C)/C(=N/O)C2OC(C)(C)OC12 (stereo unspecified) | TK-10 | > 100 µM (inactive) |

Which measured GI50 belongs to O=C1Oc2ccccc2C(=O)/C1=C\Nc1nc(-c2ccc(O)c(O)c2)cs1 , tested on TK-10? 3.26 µM (inactive)

====

# Test system: HOP-18
# assayName: NCI tumour cell line growth inhibition, 48 h
Activity calls are given as the source filed them. Rule as the data show it: active = GI50 up to about 1.1 µM and inactive = higher.
Outcome field: choose from yes = active, no = inactive

Field: outcome | Entry: CCCCCC(=O)Nc1nc(O)c2[nH]cnc2n1 no

Next entry: O=C(Nc1ccc(Br)cc1)C(=O)C(C(=O)c1ccccc1F)C1OC(=O)c2ccccc21 (stereo unspecified) no

// next record CCN1CCC(O)(c2ccc(C)cc2)C(C(=O)c2ccc(C)cc2)C1 (stereo unspecified) no

====

# Tested on: HCC 2998
# assayName: NCI tumour cell line growth inhibition, 48 h
Calls of active or inactive are those of the source. Rule as the data show it: active = GI50 up to about 1.1 µM and inactive = higher.
measuredMetric: GI50

| testSmiles | studySystem | GI50 |
| --- | --- | --- |
| CC1=C[C@H](O)[C@@]2(C)[C@@H]([C@@H]1C)[C@H]1CC[C@@H]3[C@@]4(C)CC[C@H](O)C(C)(C)[C@@H]4CC[C@@]3(C)[C@]1(C)C[C@@H]2O | HCC 2998 | 18.8 µM (inactive) |
| CCN1C(Cl)=NS(=O)(=O)c2ccccc21 | HCC 2998 | 20.3 µM (inactive) |

Would you kindly look at the next entry?
Value wanted: GI50 (HCC 2998) of entry COc1ccc(-c2nnc(CCCCCCCCc3nnc(-c4ccc(OC)cc4)n3N)n2N)cc1 > 100 µM (inactive)
